Catalogue of compounds with associated logP
Experiment: physchem
Assay type: physicochemical

Some entries whose results are on file:
- compound: "O=C(NCC(F)(F)F)c1cc(NC(=O)c2cnc(C(F)(F)C(F)(F)F)nc2C(F)(F)F)ccc1Cl [Ib-9]"
  attribute_measured: "logP"
  result: "3.53^a)"
- compound: "O=C(NCC(F)(F)F)c1cc(NC(=O)c2cnc(C(F)(F)C(F)(F)C(F)(F)F)nc2C(F)(F)F)ccc1Cl [Ib-16]"
  attribute_measured: "logP"
  result: "3.88^a)"
- compound: "Cn1nc(C(F)(F)C(F)(F)F)c(C(F)(F)F)c1C(=O)Nc1cc(F)c(F)c(C(=O)NCc2ccccc2)c1 [Ik-97]"
  attribute_measured: "logP"
  result: "4.19^a)"
- compound: "Cc1nc(C(F)(F)C(F)(F)F)ncc1C(=O)Nc1ccc(Cl)c(C(=O)NCC(F)(F)F)c1 [Ib-24]"
  attribute_measured: "logP"
  result: "3.16^a)"
- compound: "Cn1nc(C(F)(F)C(F)(F)F)c(C(F)(F)F)c1C(=O)Nc1cc(C(=O)NC2CC2)c(Cl)cc1F [Ik-143]"
  attribute_measured: "logP"
  result: "3.39^a)"

Recorded logP of Cn1nc(C(F)(F)F)c(Br)c1C(=O)Nc1ccc(Cl)c(C(=O)NC2CC2F)c1 (stereo not shown) [Ik-159] , please.
2.82^a)

Recorded logP of CC(NC(=O)c1cc(NC(=O)c2c(I)c(C(F)(F)C(F)(F)C(F)(F)C(F)(F)F)nn2C)ccc1Cl)C1CC1 (stereo not shown) [Ik-267] , please.
4.38^a)
